Every entry's value here was drawn from the supplement of paper PMC10567573.

Entries and their protein stability index
B1: TMEM192 (parent)
chain: ILGKVILWILHLLLECYIQYHHSK

Variants of: B1
testProtocol: protein stability index of a GFP-peptide fusion (GPS, HEK-293T) (PSI 1-6); higher = more stable;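 also: lentivirally expressed fusions sorted by FACS into six bins by GFP to DsRed ratio, PSI derived from sequencing read proportions per bin multiplied by bin number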
reportedConditions: c terminus: a fixed tail appended
// return a plain number; no unit text

Before answering, review these 4 worked examples.
[Q] // query protein stability index value for entry "I1D"
[A] 2.93

[Q] Also "Y17M" ?
[A] 2.85

[Q] Also "L13C" ?
[A] 2.76

[Q] Also "H11N" ?
[A] 2.91

***
[Q] // query protein stability index value for entry "I1S"
[A] 3.41
